Target: KDM5B (Homo sapiens, UniProt Q9UGL1)
Construct: Full length of KDM5B and KDM4C protein were purchased from Active Motif; purchased Active Motif 31832
Sequence (Q9UGL1 whole entry): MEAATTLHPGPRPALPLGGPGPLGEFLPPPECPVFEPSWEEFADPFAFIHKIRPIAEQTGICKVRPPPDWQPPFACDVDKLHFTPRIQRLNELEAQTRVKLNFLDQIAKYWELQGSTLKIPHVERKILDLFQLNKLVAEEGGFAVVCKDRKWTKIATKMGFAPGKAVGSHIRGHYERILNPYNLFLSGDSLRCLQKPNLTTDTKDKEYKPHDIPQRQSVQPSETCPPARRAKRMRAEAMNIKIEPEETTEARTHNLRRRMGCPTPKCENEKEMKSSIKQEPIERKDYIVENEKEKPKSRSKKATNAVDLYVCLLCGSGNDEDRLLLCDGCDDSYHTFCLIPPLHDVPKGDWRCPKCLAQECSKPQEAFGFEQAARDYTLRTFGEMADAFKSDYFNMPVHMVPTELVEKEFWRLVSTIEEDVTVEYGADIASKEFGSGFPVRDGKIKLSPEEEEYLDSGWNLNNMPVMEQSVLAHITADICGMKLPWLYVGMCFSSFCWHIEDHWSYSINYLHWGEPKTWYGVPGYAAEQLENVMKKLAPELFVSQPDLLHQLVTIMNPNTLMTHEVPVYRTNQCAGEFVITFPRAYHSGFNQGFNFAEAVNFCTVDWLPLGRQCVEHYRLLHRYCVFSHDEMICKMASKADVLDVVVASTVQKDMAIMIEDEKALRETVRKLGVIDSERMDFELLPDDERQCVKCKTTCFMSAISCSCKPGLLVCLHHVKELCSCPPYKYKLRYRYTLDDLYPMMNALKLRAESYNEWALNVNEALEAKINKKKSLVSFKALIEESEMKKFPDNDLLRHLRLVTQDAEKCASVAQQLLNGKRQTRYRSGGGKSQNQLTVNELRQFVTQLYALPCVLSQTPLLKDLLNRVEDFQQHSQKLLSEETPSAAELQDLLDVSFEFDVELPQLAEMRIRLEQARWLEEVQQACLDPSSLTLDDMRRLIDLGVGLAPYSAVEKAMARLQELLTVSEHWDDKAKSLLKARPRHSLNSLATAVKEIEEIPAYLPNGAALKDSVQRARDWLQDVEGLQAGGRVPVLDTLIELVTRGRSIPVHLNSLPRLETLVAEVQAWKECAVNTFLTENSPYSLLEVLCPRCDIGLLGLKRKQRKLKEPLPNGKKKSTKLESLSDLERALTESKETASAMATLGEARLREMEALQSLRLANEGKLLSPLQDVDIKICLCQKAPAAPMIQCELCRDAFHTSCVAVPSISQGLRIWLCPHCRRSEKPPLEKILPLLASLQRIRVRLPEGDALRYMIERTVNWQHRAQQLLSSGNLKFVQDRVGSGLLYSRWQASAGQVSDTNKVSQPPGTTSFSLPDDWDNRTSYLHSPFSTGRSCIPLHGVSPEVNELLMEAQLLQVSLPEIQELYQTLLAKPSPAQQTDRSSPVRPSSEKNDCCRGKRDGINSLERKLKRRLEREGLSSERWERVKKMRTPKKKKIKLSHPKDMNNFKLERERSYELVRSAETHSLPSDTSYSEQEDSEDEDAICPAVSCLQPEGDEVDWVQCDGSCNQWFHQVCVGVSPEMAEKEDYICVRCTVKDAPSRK
Assay: biochemical
Simple rule here: IC50 less than 30 nM is true (1), otherwise false (0).

1) Cc1noc(C)c1-c1nc(-n2ccnc2)nc(O)c1C(C)C [Example 84]	false (0)
2) CC(C)c1c(O)nc(-n2ccnc2)nc1-c1cnn(C(C)C)c1 [Example 1]	true (1)
3) CC(C)CCn1cc(-c2nc(-n3ccnc3)nc(O)c2C(C)C)cn1 [Example 73]	true (1)
4) CC(C)c1c(O)nc(-n2ccnc2)nc1-c1cnn(C2CCC2)c1 [Example 49]	true (1)
5) CC(C)c1c(O)nc(-n2ccnc2)nc1OCc1ccccc1 [Example 134]	false (0)

Does the reported IC50 of the following compound sit strictly below 30 nM? CC(C)c1c(O)nc(-n2ccnc2)nc1-c1cnn(CC(=O)O)c1 [Example 5]
false (0)

Does the reported IC50 of the following compound sit strictly below 30 nM? CC(C)c1c(O)nc(-n2ccnc2)nc1-c1cnn(Cc2ccncc2)c1 [Example 53]
true (1)

Does the reported IC50 of the following compound sit strictly below 30 nM? CC(C)c1c(O)nc(-n2ccnc2)nc1-c1cnn(CC(=O)NCC2CN(C)CCO2)c1 (stereo not shown) [Example 97]
true (1)

Does the reported IC50 of the following compound sit strictly below 30 nM? COCCNC(=O)Cn1cc(-c2nc(-n3ccnc3)nc(O)c2C(C)C)cn1 [Example 118]
false (0)

Does the reported IC50 of the following compound sit strictly below 30 nM? CC(C)c1c(O)nc(-n2ccnc2)nc1-c1cnn(CC(=O)NCc2ccn(C)n2)c1 [Example 106]
true (1)

Does the reported IC50 of the following compound sit strictly below 30 nM? Cc1nc(-n2ccnc2N)nc(O)c1C(C)C [Example 23]
true (1)

Does the reported IC50 of the following compound sit strictly below 30 nM? CC(C)c1c(O)nc(-n2ccnc2)nc1OCc1ccncn1 [Example 136]
false (0)

Does the reported IC50 of the following compound sit strictly below 30 nM? CC(C)c1c(O)nc(-n2ccnc2)nc1CCc1cccnc1 [Example 10b]
true (1)

Does the reported IC50 of the following compound sit strictly below 30 nM? CC(C)c1c(O)nc(-n2ccnc2-c2ccccn2)nc1-c1cnn(C(C)C)c1 [Example 3]
false (0)

====

Biological target: KDM4C (Homo sapiens, UniProt Q9H3R0)
Construct: Full length of KDM5B and KDM4C protein were purchased from Active Motif; purchased Active Motif 31858
Sequence (Q9H3R0 whole entry): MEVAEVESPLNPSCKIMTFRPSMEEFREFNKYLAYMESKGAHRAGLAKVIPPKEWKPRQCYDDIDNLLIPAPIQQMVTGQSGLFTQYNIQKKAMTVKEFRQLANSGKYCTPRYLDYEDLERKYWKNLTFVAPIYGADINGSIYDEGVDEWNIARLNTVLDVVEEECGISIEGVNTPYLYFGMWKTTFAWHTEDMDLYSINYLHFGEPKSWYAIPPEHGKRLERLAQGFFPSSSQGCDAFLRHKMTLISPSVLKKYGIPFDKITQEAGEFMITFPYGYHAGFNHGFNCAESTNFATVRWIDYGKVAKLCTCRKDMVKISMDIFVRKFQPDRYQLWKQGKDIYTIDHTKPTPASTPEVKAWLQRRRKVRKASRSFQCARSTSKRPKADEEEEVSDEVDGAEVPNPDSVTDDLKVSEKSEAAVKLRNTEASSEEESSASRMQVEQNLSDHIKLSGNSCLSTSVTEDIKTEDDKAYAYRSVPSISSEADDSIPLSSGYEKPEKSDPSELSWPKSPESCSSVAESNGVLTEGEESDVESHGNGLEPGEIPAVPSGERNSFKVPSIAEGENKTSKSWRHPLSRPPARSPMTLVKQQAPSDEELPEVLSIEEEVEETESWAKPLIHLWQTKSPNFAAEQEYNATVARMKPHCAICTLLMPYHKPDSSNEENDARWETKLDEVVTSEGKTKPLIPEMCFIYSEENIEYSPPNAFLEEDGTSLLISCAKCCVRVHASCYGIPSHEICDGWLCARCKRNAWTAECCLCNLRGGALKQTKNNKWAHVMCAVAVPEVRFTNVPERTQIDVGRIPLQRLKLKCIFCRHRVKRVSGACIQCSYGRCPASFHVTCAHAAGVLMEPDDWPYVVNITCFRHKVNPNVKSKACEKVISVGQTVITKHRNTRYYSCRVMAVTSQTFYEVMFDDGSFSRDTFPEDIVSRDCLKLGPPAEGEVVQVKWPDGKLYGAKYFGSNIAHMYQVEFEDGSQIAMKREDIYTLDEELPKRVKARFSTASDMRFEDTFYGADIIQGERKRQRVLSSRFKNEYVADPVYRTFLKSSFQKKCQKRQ
Assay: KDM4C AlphaScreen assay
Type: biochemical
EXPERIMENTAL READOUT: pIC50
For clarity, pIC50 is expressed as the negative log10 of concentration in mol/L.

Please tell me: pIC50 of CC(C)c1c(O)nc(-n2ccnc2)nc1OCC(=O)N1CCN(C)CC1 , system KDM4C (Homo sapiens, UniProt Q9H3R0)?
5.24

====

Molecular target: KDM5B (Homo sapiens, UniProt Q9UGL1)
Construct: Full length of KDM5B and KDM4C protein were purchased from Active Motif; purchased Active Motif 31832
Assay: biochemical
Conditions: AlphaScreen; full length KDM5B 0.5 nM; biotinylated H3K4Me3 peptide 3 nM; 25 minutes at room temperature; read-out: KDM5B (IC50)
EXPERIMENTAL READOUT: IC50
Quote the value and follow it with the unit of measurement.

Worked cases, IC50 given:
1) CC(C)c1c(O)nc(-n2ccnc2)nc1-c1cnn(CC(=O)N2CCC(O)CC2)c1	0.039 µM
2) Cc1cn(-c2nc(O)c(C(C)C)c(OCc3cccnc3)n2)cn1	0.583 µM

As a next step, examine the compound that follows.
# get_value(readout='IC50', item= CC(C)c1c(O)nc(-n2ccnc2)nc1-c1cnn(CC(=O)NCCCN(C)C)c1 )
0.004 µM
